Test system: phenylquinone-induced writhing (pain)
Test: Phenylquinone Writhing Test
Assay type: in vivo, female white mice
Details: mouse, oral, fasted; effective analgesic dose for 50% of the mice; read-out: Phenylquinone Writhing ED50
OBSERVED_PROPERTY: ED50

CC(C)Cc1ccc(C(C)C(=O)O)cc1 (stereo not drawn) [Ibuprofen, ibuprofen, reference compound] : 10 mg/kg
FC(F)C(F)(F)Sc1nc2c([nH]1)C(c1ccccc1)Oc1ccccc1-2 (stereo not drawn) [Example 1] : 1.3 mg/kg
Fc1ccc(C2Oc3ccccc3-c3nc(SC(F)(F)C(F)F)[nH]c32)cc1 (stereo not drawn) [Example 3] : 0.79 mg/kg
O=S(=O)(c1nc2c([nH]1)C(c1ccccc1)Oc1ccccc1-2)C(F)(F)F (stereo not drawn) [Example 5] : 0.16 mg/kg
O=S(=O)(c1nc2c([nH]1)C(c1ccccc1)Oc1ccccc1-2)C(F)(F)C(F)F (stereo not drawn) [Example 2] : 0.19 mg/kg
CS(=O)(=O)c1nc2c([nH]1)C(c1ccccc1)Oc1ccccc1-2 (stereo not drawn) [Example 6] : 78 mg/kg
FC(F)(F)Sc1nc2c([nH]1)C(c1ccccc1)Oc1ccccc1-2 (stereo not drawn) [Example 4] : 0.58 mg/kg
COc1ccc(C2Oc3ccccc3-c3nc(SC(F)(F)C(F)F)[nH]c32)cc1 (stereo not drawn) [Example 7] : < 4 mg/kg
CCCCC1C(=O)N(c2ccccc2)N(c2ccccc2)C1=O [Phenylbutazone, phenylbutazone, reference compound] : 80 mg/kg
